targetDesc: Prothrombin (Homo sapiens, UniProt P00734)
method: Compound (isomer) was tested in the absence of light for inhibitory activity against thrombin.
observable: Ki (nM)
State just the number; it will be interpreted in nM.

Identify measured Ki corresponding to "N=C(N)c1ccc(/C=C2/CCCC/C(=C\c3ccc(C(=N)N)cc3)C2=O)cc1"
130

====

targetDesc: Serine protease 1 (Bos taurus)
Sequence (P00760 whole entry): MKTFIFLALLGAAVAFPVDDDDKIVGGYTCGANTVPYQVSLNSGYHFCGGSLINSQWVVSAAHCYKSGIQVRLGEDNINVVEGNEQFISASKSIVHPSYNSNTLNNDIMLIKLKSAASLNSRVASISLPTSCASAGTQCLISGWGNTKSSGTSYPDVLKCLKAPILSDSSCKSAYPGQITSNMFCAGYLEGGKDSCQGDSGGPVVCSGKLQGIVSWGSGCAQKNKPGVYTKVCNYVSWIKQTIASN
method: Compound (isomer) was tested in the absence of light for inhibitory activity against trypsin.
observable: Ki (nM)
State just the number; it will be interpreted in nM.

Identify measured Ki corresponding to "N=C(N)c1ccc(/C=C2/CCCC/C(=C\c3ccc(C(=N)N)cc3)C2=O)cc1"
29

Identify measured Ki corresponding to "N=C(N)c1ccc(/C=C2\CCCC/C(=C\c3ccc(C(=N)N)cc3)C2=O)cc1"
280
